Form field: GI50 (one value per entry).
# test.protocol: Growth inhibition of human UO31 cells after 48 hrs by sulforhodamine B assay
# Type: functional
# test.conditions: UO-31, 48 h

Known results for compounds:
compound | GI50
Cn1cccc1-c1cc(-c2cccs2)nc(N)c1C#N | > 100 µM
CC1CCCc2c1[nH]c(=O)c(C#N)c2-c1cccn1C (configuration not stated) | > 100 µM
Cn1cccc1-c1cc(-c2ccccc2)nc(N)c1C#N | > 100 µM
Cn1cccc1-c1cc(-c2cccs2)[nH]c(=O)c1C#N | 13.8 µM
CC1CCCc2c1nc(N)c(C#N)c2-c1cccn1C (configuration not stated) | > 100 µM
COc1ccc(-c2cc(-c3cccn3C)c(C#N)c(N)n2)cc1OC | 97.7 µM

Now take the following compound into account.
Which GI50 reading was recorded for the compound "Cn1cccc1-c1cc(-c2ccccc2)[nH]c(=O)c1C#N" ?
> 100 µM
